The entries below are paired with their reported pIC50.
assaySystem: recombinant human SAE enzyme (Homo sapiens, UniProt Q9UBT2)
Sequence (Q9UBT2 1-640): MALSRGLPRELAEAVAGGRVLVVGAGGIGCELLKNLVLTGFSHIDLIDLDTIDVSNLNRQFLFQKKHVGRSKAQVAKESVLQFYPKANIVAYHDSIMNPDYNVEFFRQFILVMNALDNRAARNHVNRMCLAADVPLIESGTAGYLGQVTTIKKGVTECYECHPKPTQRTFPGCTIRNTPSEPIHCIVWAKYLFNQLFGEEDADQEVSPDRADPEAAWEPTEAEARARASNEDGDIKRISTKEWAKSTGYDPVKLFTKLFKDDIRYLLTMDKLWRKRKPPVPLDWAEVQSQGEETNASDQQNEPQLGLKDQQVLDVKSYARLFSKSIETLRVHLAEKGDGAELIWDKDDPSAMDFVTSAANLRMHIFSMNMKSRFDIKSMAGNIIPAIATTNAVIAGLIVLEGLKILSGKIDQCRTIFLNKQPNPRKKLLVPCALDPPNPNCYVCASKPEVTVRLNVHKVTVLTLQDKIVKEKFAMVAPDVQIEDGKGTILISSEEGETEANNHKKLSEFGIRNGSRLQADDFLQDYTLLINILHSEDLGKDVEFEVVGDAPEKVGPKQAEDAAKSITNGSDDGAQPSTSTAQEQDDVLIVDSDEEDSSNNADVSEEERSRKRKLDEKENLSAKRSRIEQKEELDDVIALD
Sequence (Q9UBE0 1-346 partner): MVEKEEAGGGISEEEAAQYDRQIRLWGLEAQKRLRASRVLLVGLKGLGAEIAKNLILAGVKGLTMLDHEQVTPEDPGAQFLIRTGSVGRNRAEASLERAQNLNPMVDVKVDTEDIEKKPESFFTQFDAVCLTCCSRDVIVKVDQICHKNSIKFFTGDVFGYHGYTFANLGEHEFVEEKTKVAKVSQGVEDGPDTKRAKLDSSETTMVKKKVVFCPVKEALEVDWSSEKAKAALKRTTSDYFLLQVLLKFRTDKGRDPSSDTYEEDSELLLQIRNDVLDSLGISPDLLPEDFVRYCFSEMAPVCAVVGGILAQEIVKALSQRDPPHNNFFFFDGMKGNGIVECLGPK
methodDescription: SAE HTRF Enzyme Assay
conditionsUsed: class symbols A-C
Description: The SAE enzymatic reaction totals 50 μl and contains 50 mM HEPES Hemisodium (pH 7.5), 0.05% BSA, 5 mM MgCl2, 0.5 μM ATP, 250 μM GSH, 0.01 μM Ubc9-GST, 0.125 μM Sumo-Flag and 0.11 nM recombinant human SAE enzyme. […] After incubation for 2 hours at 24° C., quantification of FRET is performed on the Pherostar™ (BMG Labtech). Percentage inhibition values at a single concentration or enzyme inhibition (IC50) values are determined from those curves. […]
pIC50: −log10 of the molar value.
parameter: pIC50

>>> measuredresult("NS(=O)(=O)OC[C@H]1C[C@@H](Nc2ncncc2C(=O)c2ccn(-c3ccccc3)n2)C[C@@H]1O")
"7.00 to 8.00"
>>> measuredresult("NS(=O)(=O)OC[C@H]1C[C@@H](Nc2ncncc2C(=O)c2ccn(Cc3ccc(C(F)(F)F)o3)n2)[C@H](O)[C@@H]1O")
"> 8.00"
>>> measuredresult("CC(C)(c1ccccc1)n1ccc(C(=O)c2cncnc2N[C@@H]2C[C@H](COS(N)(=O)=O)[C@@H](O)C2)c1")
"7.00 to 8.00"
